- test_target: human p38 kinase alpha (Homo sapiens, UniProt Q16539)
- Construct: GST (N, cleaved yes); made in house; host or cells: E. coli DH10B
- Sequence (Q16539 whole entry): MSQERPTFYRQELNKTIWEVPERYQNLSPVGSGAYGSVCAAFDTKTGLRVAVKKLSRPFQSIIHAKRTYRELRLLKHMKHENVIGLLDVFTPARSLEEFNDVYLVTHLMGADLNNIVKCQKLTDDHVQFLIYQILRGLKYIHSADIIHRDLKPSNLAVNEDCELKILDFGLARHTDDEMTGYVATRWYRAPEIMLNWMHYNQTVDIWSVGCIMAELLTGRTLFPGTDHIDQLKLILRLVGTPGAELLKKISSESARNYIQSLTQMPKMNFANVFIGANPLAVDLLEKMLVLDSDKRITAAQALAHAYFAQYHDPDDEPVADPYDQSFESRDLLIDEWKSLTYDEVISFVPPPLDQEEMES
- assay_remarks: p38 kinase in vitro assay, phosphorylation of biotinylated PHAS-I with 32P-ATP
- Format: biochemical
- experimental_parameters: in vitro P38-alpha kinase inhibition; read-out: P38 alpha kinase IC50
value_type: pIC50
Please keep in mind that pIC50 is minus log10 of the molar concentration; only the number is needed.

In [3]: df
Out[3]:
                                   compound  value_observed
0  Cc1c(C)c(S(=O)(=O)NCCc2[nH]nc(-c3ccc(F)cc3)c2-c2ccncc2)c(C)c2c1OC(C)(C)CC2 [Example B-1110]            6.33
1  CC(NC(=O)c1ccc(F)c(F)c1)c1[nH]nc(-c2ccc(F)cc2)c1-c1ccncc1 (stereo not drawn) [Example B-0678]            6.42
2  CC(NC(=O)C1CCCN1)c1[nH]nc(-c2ccc(F)cc2)c1-c1ccncc1 (stereo not drawn) [Example B-0605]            6.74
3  O=C(NCCc1[nH]nc(-c2ccc(F)cc2)c1-c1ccncc1)c1cccc(Cl)c1 [Example B-1153]            5.65
4  O=C(NCCc1[nH]nc(-c2ccc(F)cc2)c1-c1ccncc1)c1ccc(F)c(C(F)(F)F)c1 [Example B-1140]            5.77
5  O=C(NC(Cc1ccccc1)c1[nH]nc(-c2ccc(F)cc2)c1-c1ccncc1)c1cccc(Br)c1 (stereo not drawn) [Example B-0838]            5.51
6  O=S(=O)(Cc1ccccc1)NC(Cc1ccccc1)c1[nH]nc(-c2ccc(F)cc2)c1-c1ccncc1 (stereo not drawn) [Example B-0756]            6.03
7  COc1ccccc1C(=O)NC(C)c1[nH]nc(-c2ccc(F)cc2)c1-c1ccncc1 (stereo not drawn) [Example B-0544]            5.95

Q: // lookup pIC50 for O=C(Cc1cccs1)NC(Cc1ccccc1)c1[nH]nc(-c2ccc(F)cc2)c1-c1ccncc1 (stereo not drawn) [Example B-0790]
A: 6.00

Q: Record: CC(NS(=O)(=O)c1ccc(S(=O)(=O)c2ccccc2)s1)c1[nH]nc(-c2ccc(F)cc2)c1-c1ccncc1 (stereo not drawn) [Example B-0665]
A: 6.33

Q: Record: CC(NC(=O)N1CCCC1)c1[nH]nc(-c2ccc(F)cc2)c1-c1ccncc1 (stereo not drawn) [Example B-0581]
A: 6.59

Q: Record: CC(NC(=O)c1cccc(Cl)c1)c1[nH]nc(-c2ccc(F)cc2)c1-c1ccncc1 (stereo not drawn) [Example B-0702]
A: 7.44

Q: Record: COc1ccc(NC(=O)NC(C)c2[nH]nc(-c3ccc(F)cc3)c2-c2ccncc2)c(OC)c1 (stereo not drawn) [Example B-0599]
A: 5.38

Q: Record: O=C(NCc1ccccc1)NC(Cc1ccccc1)c1[nH]nc(-c2ccc(F)cc2)c1-c1ccncc1 (stereo not drawn) [Example B-0725]
A: 5.01

Q: Record: CC1(C)C2CCC1(S(=O)(=O)NCCc1[nH]nc(-c3ccc(F)cc3)c1-c1ccncc1)C(=O)C2 (stereo not drawn) [Example B-1100]
A: 6.66

Q: Record: Cc1ccccc1C(=O)NCCc1[nH]nc(-c2ccc(F)cc2)c1-c1ccncc1 [Example B-1120]
A: 6.33

Q: Record: CN(C)c1cccc2c(S(=O)(=O)NCCc3[nH]nc(-c4ccc(F)cc4)c3-c3ccncc3)cccc12 [Example B-1072]
A: 6.42

Q: Record: CC(=O)Nc1nc(C)c(S(=O)(=O)NC(C)c2[nH]nc(-c3ccc(F)cc3)c2-c2ccncc2)s1 (stereo not drawn) [Example B-0607]
A: 5.55

Q: Record: Cc1cc(C)c(S(=O)(=O)NCCc2[nH]nc(-c3ccc(F)cc3)c2-c2ccncc2)c(C)c1 [Example B-1067]
A: 5.80

Q: Record: Cc1ccc(C(=O)NCCc2[nH]nc(-c3ccc(F)cc3)c2-c2ccncc2)cc1 [Example B-1122]
A: 5.74

Q: Record: O=C(Nc1cccc(F)c1)NC(Cc1ccccc1)c1[nH]nc(-c2ccc(F)cc2)c1-c1ccncc1 (stereo not drawn) [Example B-0785]
A: 4.64

Q: Record: CC(=O)OCC(=O)NC(Cc1ccccc1)c1[nH]nc(-c2ccc(F)cc2)c1-c1ccncc1 (stereo not drawn) [Example B-0829]
A: 6.21

Q: Record: CC(=O)NC(Cc1ccccc1)c1[nH]nc(-c2ccc(F)cc2)c1-c1ccncc1 (stereo not drawn) [Example B-0803]
A: 7.24

Q: Record: CNC(=O)CCC(NC(=O)Nc1ccc(OC)cc1OC)c1[nH]nc(-c2ccc(F)cc2)c1-c1ccncc1 (stereo not drawn) [Example B-0884]
A: 5.72

Q: Record: CC(NC(=O)c1ccccc1F)c1[nH]nc(-c2ccc(F)cc2)c1-c1ccncc1 (stereo not drawn) [Example B-0699]
A: 6.47

* * *

- test_target: human p38 kinase alpha (Homo sapiens)
- Construct: GST (N, cleaved yes); made in house; host or cells: E. coli DH10B
- assay_remarks: p38 kinase in vitro assay, phosphorylation of biotinylated PHAS-I with 32P-ATP
- Type: biochemical
- experimental_parameters: @ 1.0 uM
value_type: P38 alpha kinase % inhib @ conc. (uM) (% @)
The response must be a number in % @ with no trailing unit.

Q: // lookup P38 alpha kinase % inhib @ conc. (uM) for CCOC(=O)c1ccc(NC(=O)NCCc2[nH]nc(-c3ccc(F)cc3)c2-c2ccncc2)cc1
A: 90.0

Q: Record: CC(C)C(=O)NCCc1[nH]nc(-c2ccc(F)cc2)c1-c1ccncc1
A: 75.0

Q: Record: CC(C)COC(=O)NCCc1[nH]nc(-c2ccc(F)cc2)c1-c1ccncc1
A: 75.0

Q: Record: O=C(NCCCc1[nH]nc(-c2ccc(F)cc2)c1-c1ccncc1)c1ccccc1C(F)(F)F
A: 65.0

Q: Record: CCOC(=O)C(CCSC)NC(=O)NCCc1[nH]nc(-c2ccc(F)cc2)c1-c1ccncc1 (centres unmarked)
A: 69.0

* * *

- test_target: human p38 kinase alpha (Homo sapiens)
- Construct: GST (N, cleaved yes); made in house; host or cells: E. coli DH10B
- assay_remarks: p38 kinase in vitro assay, phosphorylation of biotinylated PHAS-I with 32P-ATP
- Type: biochemical
- experimental_parameters: @ 1.0 uM
Each entry gets condition not met if its P38 alpha kinase % inhib @ conc. (uM) stays under 70 % @, and condition met if its P38 alpha kinase % inhib @ conc. (uM) is 70 % @ or above.

Observe how each entry below is paired with its result.
In [3]: df
Out[3]:
                                   molecule                            test_target         class_name
0  O=C(NCCc1[nH]nc(-c2ccc(F)cc2)c1-c1ccncc1)Nc1ccccc1F  human p38 kinase alpha (Homo sapiens)  condition not met
1  O=C(NCCc1[nH]nc(-c2ccc(F)cc2)c1-c1ccncc1)C1CC1  human p38 kinase alpha (Homo sapiens)      condition met
2  CC(Oc1ccccc1)C(=O)NCCc1[nH]nc(-c2ccc(F)cc2)c1-c1ccncc1 (centres unmarked)  human p38 kinase alpha (Homo sapiens)      condition met
3  CCS(=O)(=O)NCCc1[nH]nc(-c2ccc(F)cc2)c1-c1ccncc1  human p38 kinase alpha (Homo sapiens)      condition met
4  Cc1ccc(S(=O)(=O)NCCc2[nH]nc(-c3ccc(F)cc3)c2-c2ccncc2)cc1  human p38 kinase alpha (Homo sapiens)  condition not met
5  CCCCS(=O)(=O)NCCc1[nH]nc(-c2ccc(F)cc2)c1-c1ccncc1  human p38 kinase alpha (Homo sapiens)      condition met
6  C=CCOC(=O)NCCCc1[nH]nc(-c2ccc(F)cc2)c1-c1ccncc1  human p38 kinase alpha (Homo sapiens)      condition met
7  O=C(NCCCc1[nH]nc(-c2ccc(F)cc2)c1-c1ccncc1)c1ccccc1  human p38 kinase alpha (Homo sapiens)      condition met

Q: Hi, just wondering whether O=S(=O)(NCCc1[nH]nc(-c2ccc(F)cc2)c1-c1ccncc1)c1ccccc1 shows P38 alpha kinase % inhib @ conc. (uM) of 70 % @ or higher.
A: condition met

Q: Record: COc1ccccc1C(=O)NCCc1[nH]nc(-c2ccc(F)cc2)c1-c1ccncc1
A: condition not met

* * *

Here the recorded P38 alpha kinase IC50, uM or % inhib @ conc. (uM): % inhib is given for each entry.
- test_target: human p38 kinase alpha (Homo sapiens, UniProt Q16539)
- Construct: GST (N, cleaved yes); made in house; host or cells: E. coli DH10B
- assay_remarks: p38 kinase in vitro assay, phosphorylation of biotinylated PHAS-I with 32P-ATP
- Type: biochemical
- experimental_parameters: @ 10.0 uM
- Procedure: The coding region of the human p38a cDNA was obtained by PCR-amplification from RNA isolated from the human monocyte cell line THP.1. […] Random primer, dNTP's and Superscript™ reagents were all purchased from Life-Technologies, Gaithersburg, Mass. The reaction was incubated at 42° C. for 1 hour. […]
The response must be a number in % @ with no trailing unit.

>>> print(df.to_string())
                                   compound                               test_target  value_observed
0  Cc1c(-c2ccncc2)c(-c2ccc(F)cc2)nn1CC(=O)N1CCC(N(C)C(=O)OC(C)(C)C)C1 (stereo not shown) [Example B-2413]  human p38 kinase alpha (Homo sapiens, UniProt Q16539)            75.0
1  Cc1c(-c2ccncc2)c(-c2ccc(F)cc2)nn1CC(=O)N1CCCCC1CC1CCCN1C (mixture of isomers) [Example B-2388]  human p38 kinase alpha (Homo sapiens, UniProt Q16539)            42.0
2  Cc1c(-c2ccncc2)c(-c2ccc(F)cc2)nn1CC(=O)Nc1ccccc1SCCCc1ccccc1 [Example B-2460]  human p38 kinase alpha (Homo sapiens, UniProt Q16539)            80.0

Continue with the next compound.
Q: // lookup P38 alpha kinase IC50, uM or % inhib @ conc. (uM): % inhib for Cc1c(-c2ccncc2)c(-c2ccc(F)cc2)nn1CC(=O)N(C)CC(=O)N(C)C [Example B-2412]
A: 40.0
